System: SR leukemia
Assay: NCI tumour cell line growth inhibition, 48 h
Where a SMILES comes first, the peptide text is derived from it. The star is where a group is joined. Boc = CC(C)(C)OC(=O)*; OSu = O=C1CCC(=O)N1O*
METRIC NAME: TGI

Completed entries (count: 4):
CCOC(=O)C1=CNC(C(=O)OCC)C1c1cccn1-c1ccc(Cl)cc1[N+](=O)[O-] (configuration not stated)    61.8 µM
C=C1C(=O)O[C@@H]2C[C@@H](C)[C@@H]3C=CC(=O)[C@@]3(C)[C@@H](OC(=O)CC(=O)O[C@H]3[C@@H]4C(=C)C(=O)O[C@@H]4C[C@@H](C)[C@@H]4C=CC(=O)[C@]43C)[C@H]12    0.0548 µM
CC(NC(=O)C(NC(=O)OC(C)(C)C)C(C)C)C(=O)NCC(=O)ON1C(=O)CCC1=O (stereo not drawn) (Boc-Val-Ala-Gly-OSu; configuration not given here)    > 100 µM
CN[C@H]1C=C[C@@H]2/C=C(C)/C=C/[C@@H](C)[C@H]([C@H](C)[C@H](O)[C@@H](C)NC(C)=O)OC(=O)/C=C/C=C(C)\C=C\[C@]2(C)C1    > 49 µM

// for each molecule below, give its TGI
1. O=C(/N=C/c1c(O)c2ccccc2oc1=O)Nc1ccccc1
2. CCOc1ccc2nc(SCc3nc4n(n3)S(=O)(=O)c3ccccc3N4C)sc2c1
3. N/C(=N\S(=O)(=O)c1ccc(S(=O)(=O)c2ccccc2)s1)Nc1ccc(Cl)cc1
4. O=C1NC(SSC2=NNC3(C(=O)N2)c2ccccc2-c2ccccc23)=NNC12c1ccccc1-c1ccccc12
5. Cc1[nH]c2ccccc2c1C(=O)CC1(O)C(=O)Nc2ccccc21 (configuration not stated)
6. CCSc1sc(=Nc2ccc(N=c3sc(C)c(SC)s3)cc2)sc1-c1ccc(C)cc1

**Result**
["> 100 µM", "> 100 µM", "61.9 µM", "> 10 µM", "> 100 µM", "> 100 µM"]

---

Test system: OVCAR-5 ovarian
Assay: NCI tumour cell line growth inhibition, 48 h
METRIC NAME: TGI

COC(=O)C1=C(C(=O)OC)C(C(=O)c2ccc(Br)cc2)N2N=C(c3ccc(Cl)cc3)C=CC12 (stereo unspecified)    > 100 µM
CN1CCCC2(CCCc3ccccc32)C1 (stereo unspecified)    > 100 µM
COC(=O)c1c2c(c[n+]([O-])c1C)C(=O)C=CC2=O    3.85 µM

Respectfully, I request TGI for each entry included below.
1. COc1cc(C2c3cc4c(cc3[C@@H](Nc3ccccc3)C3COC[C@H]23)OCO4)cc(OC)c1O (stereo partly specified)
2. N#CCc1n[nH]c(Cc2ccccc2)n1
3. Cc1[nH]c2ccccc2c1C(=O)CC1(O)C(=O)Nc2ccccc21 (stereo unspecified)

**Result**
1: 9.83 µM; 2: > 100 µM; 3: > 100 µM

---

Tested on: COLO 205 colon
Test: NCI tumour cell line growth inhibition, 48 h
METRIC NAME: GI50

Examples with their reported GI50 follow.
Cc1nc(SCC(=O)Nc2nc(-c3ccc(Cl)cc3)cs2)n(Nc2ccccc2)c1C    4130 nM
Clc1nc(Cl)c2ncn(Cc3cccc(Cn4cnc5c(Cl)nc(Cl)nc54)c3)c2n1    3370 nM

Each compound below has a recorded value; state its GI50.
1. O=C(CO[N+](=O)[O-])Nc1ccc(C(=O)/C=C/c2ccc(Cl)cc2)cc1
2. CN(C)CCCOc1ccc(-c2ccc3ncc4c(c3c2)n(C2CCOCC2)c(=O)n4C)cn1
3. N[C@H](C(=O)O)[C@H]1ON=C(Cl)[C@@H]1O
4. Nc1ccc(C2=NN(c3ccccc3)C(c3ccc(Cl)cc3)C2)cc1 (stereo not given)
5. Cc1ccc(C)c2c1C(O)(C#Cc1ccccc1)c1ccccc1C2(O)C#Cc1ccccc1 (stereo not given)
6. CC(=O)[O][Ga]([Cl])[O]C(C)=O

**Result**
1: 2570 nM; 2: 825 nM; 3: 3270 nM; 4: 2150 nM; 5: 2010 nM; 6: > 100000 nM

Items follow; give GI50 for each.
1. COc1ccc(C(=O)/C=C/c2ccc(C)cc2)cc1OC
2. Cc1ccc(-c2csc(/N=C3\C(=O)Nc4ccccc43)n2)cc1

**Result**
1: 10100 nM; 2: 1310 nM

---

Please go through the items and note down their GI50.
System: UO-31 renal
Assay: NCI tumour cell line growth inhibition, 48 h

Some solved cases for reference:
Cc1nc(SCC(=O)Nc2nc(-c3ccc(Cl)cc3)cs2)n(Nc2ccccc2)c1C    3590 nM
Fc1ccc2[nH]cc(-c3nonc3-c3c[nH]c4ccc(Br)cc34)c2c1    1390 nM
O=C(CO[N+](=O)[O-])Nc1ccc(C(=O)/C=C/c2ccc(Cl)cc2)cc1    1520 nM
CN(C)CCCOc1ccc(-c2ccc3ncc4c(c3c2)n(C2CCOCC2)c(=O)n4C)cn1    494 nM
Cn1cc(C2=C(c3cn(CCCCN)c4ccccc34)C(=O)NC2=O)c2ccccc21    > 25000 nM
Cc1ccc(C)c2c1C(O)(C#Cc1ccccc1)c1ccccc1C2(O)C#Cc1ccccc1 (stereo not given)    1890 nM
COc1cc(C#Cc2ccc(=O)oc2C#Cc2ccccc2)cc(OC)c1OC    1510 nM
Cc1nn(-c2nc3ccccc3[nH]2)c(N)c1-c1ccc(Cl)cc1    3790 nM
CC(=O)[CH-]C(C)=O.CC(=O)[CH-]C(C)=O.[CH2-]CCC.[CH2-]CCC.[Sn+4]    1030 nM

# input for lookup
**Query** // query GI50 value for entry C=C1C(O)C2C(=C(CCc3ccccc3)C13CC3)C(=O)C(C)(CO)C2O (stereo not given)
**Result** > 100000 nM

---

System: M19-MEL melanoma
Experiment: NCI tumour cell line growth inhibition, 48 h
I'd appreciate it if you could supply TGI values for the items below.

Known TGI results, listed for orientation:
O=c1[nH]c(=O)n(C2OC(COP(=O)(O)OP(=O)(O)OC3OC(CO)C(O)C(O)C3O)C(O)C2O)cc1F (configuration not stated)    59.4 µM
CN(C)CC(C)(C)/C(=N\Nc1ccccc1)c1ccccc1    > 100 µM
C[C@]12CCC(=O)C=C1CC[C@@H]1[C@@H]2[C@@H](O)C[C@@]2(C)[C@H]1CC[C@]2(O)C(=O)COC(=O)COCC(=O)O    > 100 µM
COc1cc2c(cc1OC)C(C(CO)CO)N(CC(O)CCl)CC2 (configuration not stated)    > 100 µM

Report TGI for every entry below.
1. Cc1ccc(SC(CCC(Sc2ccc(C)cc2)Sc2ccc(C)cc2)Sc2ccc(C)cc2)cc1
2. COc1ccc2c(c1)N1CCc3cc(OC)c(OC)cc3C1C2 (configuration not stated)
3. CCCCCC(=O)C(C)C1=Nc2nnc(CCCCCCCc3nnc4n3C(=O)C(C(C)C(=O)CCCCC)=N4)n2C1=O (configuration not stated)
4. COC(=O)/C=C1/CCC(C(=O)OC)N1 (configuration not stated)
5. COc1ccc(-n2cnnc2-c2nsc3ccccc23)cc1

**Result**
1. > 100 µM
2. > 100 µM
3. > 100 µM
4. > 100 µM
5. > 100 µM

Please give TGI for each item listed below.
1. C[N-]c1nnnn1C.[Au+].c1ccc([PH+](c2ccccc2)c2ccccc2)cc1
2. N[C@H](C(=O)O)[C@H]1ON=C(Cl)[C@@H]1O
3. N#CC1=C(N)n2c(s/c(=C\c3ccc(Cl)cc3)c2=O)=C(c2nc3ccccc3[nH]2)C1c1ccc(Cl)cc1 (configuration not stated)

**Result**
1: 14.9 µM; 2: > 550 µM; 3: 9.15 µM

---

System: SK-MEL-2 melanoma
Assay: NCI tumour cell line growth inhibition, 48 h
Provide the reported GI50 of each item.

Please review the entries below; each comes with its answer.
CCC[CH2][Sn]1([CH2]CCC)[O]CC(Cc2ccccc2)[O]1 (centres undefined)    1540 nM
CO[C@H]1/C=C/O[C@@]2(C)Oc3c(C)c(O)c4c(c3C2=O)C(=O)C(/C=N/N(c2ccccc2)c2ccccc2)=C(NC(=O)/C(C)=C\C=C\[C@H](C)[C@H](O)[C@@H](C)[C@@H](O)[C@@H](C)[C@H](OC(C)=O)[C@@H]1C)C4=O    1860 nM
CCOc1ccc2nc(SCc3nc4n(n3)S(=O)(=O)c3ccccc3N4C)sc2c1    > 100000 nM

**Query** Entry under review: COc1ccc2c(c1)C(=O)c1c-2n(CCCN=[N+]=[N-])c(=O)c2cc(OC)c(OC)cc12 . Reported GI50?
**Result** > 100000 nM

---

Exercise: for every item that follows, state its recorded TGI.
Tested on: RXF 393 renal
Test: NCI tumour cell line growth inhibition, 48 h
Numbers only, in µM.

C[N-]c1nnnn1C.[Au+].c1ccc([PH+](c2ccccc2)c2ccccc2)cc1    1.26

**Query** Which measured TGI value corresponds to CN(C)CCCOc1ccc(-c2ccc3ncc4c(c3c2)n(C2CCOCC2)c(=O)n4C)cn1 ?
**Result** 4.85
